Target: T1, S100A4 (wild type) (UniProt P26447 1-101)
T1 construct: S100A4, wild type; predominantly a dimer under the conditions of the kinetic analysis; Concentrations are stated per monomer chain; only the Ni-NTA column is told; also called Mts1; metastasin; source: E. coli BL21(DE3), purified (Ni-NTA, Superdex 75 gel filtration)
T1 sequence (P26447 whole entry, one chain of several): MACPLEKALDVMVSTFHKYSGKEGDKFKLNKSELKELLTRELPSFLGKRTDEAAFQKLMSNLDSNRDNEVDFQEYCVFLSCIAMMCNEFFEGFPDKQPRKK
Experiment: stopped-flow Quin-2 fluorescence (Ca2+ dissociation rate constant against [M32]); 10 uM S100A4 with Ca2+ premixed with M32 (0-50 uM), mixed with 100 uM Quin-2; kobs from single exponentials fitted against [M32] to a quadratic binding equation; apparent; legend says conditions as for Fig. 2c (taken as Fig. 5c: 100 mM NaCl, 10 mM Hepes, 100 uM Ca2+, pH 7.5, 20 C)
Details: both partners purified

binder | Kd [nM]
Ac-ADAMNREVSSLKNKLRRGDLPFVVPRRMARKG-NH2 (peptide, UniProt P35579-1 1907-1938, looked up, nonmuscle myosin heavy chain IIA (NM-MHC IIA), human, residues A1907-G1938; source: synthetic peptide, bought: Peptide 2.0, Inc) [M32 peptide (A1907-G1938 of human nonmuscle myosin heavy chain IIA)] | 440

Recorded values, source paper PMC3025356.
